No of serum samples >30% inhibition (30% CCP) without SCP (serum samples) by entry:
measured on: pre-existing anti-drug antibodies (ADA) present in human sera
test name: pre-existing ADA ELISA, scFv coated, human sera unspiked vs spiked
metric: No of serum samples >30% inhibition (30% CCP) without SCP (serum samples)

# binder, recorded result
rows = [
    ("PRO2931 (scFv 54-21-H03-sc01_(L144K, S148L)) (scFv, PRO1922 variant; VH substitutions, AHo numbering; also called PRO1922 L144K-S148L) scFv: DIQMTQSPSSLSASVGDRVTITCQASESIYSSLAWYQQKPGKAPKLLIYLASTLASGVPSRFSGSGSGTDFTLTISSLQPEDFATYYCQSTDYTTSTHRNSFGTGTKVTVLGGGGGSGGGGSGGGGSGGGGSEVQLVESGGGLVQPGGSLRLSCAASGFSFSTTYYMCWVRQAPGKGLEWIGCTNTASSVRTYYATWAKGRFTISRDNSKNTVYLQMNSLRAEDTAVYYCARDMGFADYALNLWGQGTKVTVLS", 6),
    ("PRO2993 (scFv 54-21-H03-sc01_(P15A)) (scFv, PRO1922 variant; VH substitution, AHo numbering; also called PRO1922 P15A) scFv: DIQMTQSPSSLSASVGDRVTITCQASESIYSSLAWYQQKPGKAPKLLIYLASTLASGVPSRFSGSGSGTDFTLTISSLQPEDFATYYCQSTDYTTSTHRNSFGTGTKVTVLGGGGGSGGGGSGGGGSGGGGSEVQLVESGGGLVQAGGSLRLSCAASGFSFSTTYYMCWVRQAPGKGLEWIGCTNTASSVRTYYATWAKGRFTISRDNSKNTVYLQMNSLRAEDTAVYYCARDMGFADYALNLWGQGTLVTVSS", 3),
    ("PRO3346 (scFv 54-21-H03-sc01_(T101S T146K)) (scFv, PRO1922 variant; VH substitutions, AHo numbering; also called PRO1922 T101S-T146K) scFv: DIQMTQSPSSLSASVGDRVTITCQASESIYSSLAWYQQKPGKAPKLLIYLASTLASGVPSRFSGSGSGTDFTLTISSLQPEDFATYYCQSTDYTTSTHRNSFGTGTKVTVLGGGGGSGGGGSGGGGSGGGGSEVQLVESGGGLVQPGGSLRLSCAASGFSFSTTYYMCWVRQAPGKGLEWIGCTNTASSVRTYYATWAKGRFTISRDNSKNTVYLQMNSLRAEDSAVYYCARDMGFADYALNLWGQGTLVKVSS", 0),
]
